The following molecules are shown together with reported Length of entire tube of HUVEC (2 × 10^4 cells) (pixels) values.
tested on: HUVEC; test: Cell-based functional assay, endothelial cell tube formation (BD BioCoat Angiogenesis System); design: species or system human; details: 5 μM fused protein synergibody, 18 hours; unrelated control group 12,227 ± 1,232
result_type: Length of entire tube of HUVEC (2 × 10^4 cells) (pixels)

>  <molecule>
Syn-Ang-VEGFR-6: fused protein synergibody SAITAng-2-2 × DTN6VEGFR-2-1, peptide at C-terminal of heavy chain (protein, left off: a dimerising Fc or GST, fused protein synergibody SAITAng-2-2 × DTN6VEGFR-2-1, peptide at C-terminal of heavy chain) heavy (part 1 of 2): QVQLQQSGPELVKPGASVKMSCKASGYTFTDYVISWVKQRTGQGLEWIGEIYPGSGSTYYNEKFKGKASLTADKSSNTAYMQLSSLTSADSAVYFCVRSRGDYYAMDYWGQGTSVTVSS heavy (part 2 of 2): TGSDDLCYTFPCMHY light: DIQMTQSPSSLSASLGGKVTITCKASQDINNYITWYQHKPGKGPRLLIHYTSTLQPGIPSRFSGSGSGRDYSFSISNLEPEDIATYYCLQYDNLLTFGGGTKLEIK

>  <reported_value>
6,157 ± 1,141 pixels

$$$$
>  <molecule>
Syn-Ang-VEGFR-13: fused protein synergibody SAITAng-2-3 × DTN9VEGFR-2-3, peptide at C-terminal of heavy chain (protein, left off: a dimerising Fc or GST, fused protein synergibody SAITAng-2-3 × DTN9VEGFR-2-3, peptide at C-terminal of heavy chain) heavy (part 1 of 2): DVQLVESGGGLVQPGGSRKLSCAASGFTFSSFGMHWVRQAPEKGLEWVAYISSDSSTIYYADTVKGRFTISRDNPKNTLFLQMTSLRSEDTAMYYCAREGGYDDYYAMDYWGQGTSVTVSS heavy (part 2 of 2): EAGAYWCKAWGLSPCLVT light: DIQMTQSPASQSASLGESVTITCLASQTIGTWLAWYQQKPGKSPQLLIYAATSLADGVPSRFSGSGSGTKFSFKISSLQAEDFVSYYCQQLYSIPLTFGGGTKLEIK

>  <reported_value>
4,216 ± 747 pixels

$$$$

Attribution: patent US20110076723A1
